Target: HPK1 (Homo sapiens, UniProt Q92918)
Construct: A HiBiT tag was introduced by CRISPR on the N terminus of HPK1 in Jurkat cells; host or cells: Jurkat cells (ATCC TIB-152), monoclonal line with CRISPR knock-in of HiBiT at the endogenous HPK1 locus
Sequence (Q92918 whole entry): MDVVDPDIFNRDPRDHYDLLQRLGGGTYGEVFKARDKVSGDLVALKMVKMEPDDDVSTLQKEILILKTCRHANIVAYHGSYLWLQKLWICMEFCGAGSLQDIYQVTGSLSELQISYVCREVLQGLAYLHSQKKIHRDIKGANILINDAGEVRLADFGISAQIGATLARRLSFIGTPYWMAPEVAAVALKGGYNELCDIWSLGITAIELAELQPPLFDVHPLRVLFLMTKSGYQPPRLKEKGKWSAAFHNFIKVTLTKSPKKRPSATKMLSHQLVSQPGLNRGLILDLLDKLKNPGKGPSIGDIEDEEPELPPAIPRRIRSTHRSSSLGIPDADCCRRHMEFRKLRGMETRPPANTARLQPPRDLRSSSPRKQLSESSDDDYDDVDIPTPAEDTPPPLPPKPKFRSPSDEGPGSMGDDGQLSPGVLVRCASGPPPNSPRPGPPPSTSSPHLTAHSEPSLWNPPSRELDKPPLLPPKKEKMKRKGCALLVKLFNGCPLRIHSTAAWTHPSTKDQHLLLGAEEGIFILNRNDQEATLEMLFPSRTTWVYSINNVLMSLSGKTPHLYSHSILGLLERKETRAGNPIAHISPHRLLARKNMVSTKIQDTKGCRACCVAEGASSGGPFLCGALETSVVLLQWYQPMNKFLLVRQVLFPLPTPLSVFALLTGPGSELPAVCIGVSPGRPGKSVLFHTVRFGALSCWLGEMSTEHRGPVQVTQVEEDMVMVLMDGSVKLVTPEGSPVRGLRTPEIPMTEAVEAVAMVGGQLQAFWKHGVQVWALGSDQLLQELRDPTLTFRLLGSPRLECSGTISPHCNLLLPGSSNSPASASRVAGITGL
Assay: HPK1 Cellular HiBit Degradation Assay
Type: cell-based
Conditions: Jurkat, HiBiT HPK1 Jurkat cells, 24 hrs; maximum degradation vs DMSO vehicle control; read-out: Dmax Category
Protocol: HPK1 Cellular HiBit Degradation Assay A HiBiT tag was introduced by CRISPR on the N terminus of HPK1 in Jurkat cells (ATCC® TIB-152) to allow quantitation of HPK1 protein levels in a monoclonal human cell line. […] Cells were incubated for 10 min at room temperature and luminescence was read on an EnVision plate reader (Perkin Elmer, 0.1 sec per well). […] Percent HPK1 remaining per sample was calculated as follows: […]
Readout type: Dmax

Check out these entries, answers already filled in.
CC(C)n1cnc2cc(-c3ccc4c(c3)N([C@H]3C[C@@H](N5CCCCC5)C3)C(=O)C43CCN(C(=O)[C@@H]4CCN(C(=O)[C@H]5CC[C@H](Oc6ccc(C7CCC(=O)NC7=O)cn6)CC5)C4)CC3)nc(NC3CCOCC3)c21 (mixture of isomers) [Example 19]    70 to 85%
CC(C)n1cnc2cc(-c3ccc4c(c3)N([C@H]3C[C@@H](N5CCCCC5)C3)C(=O)C43CCN(C(=O)[C@]4(C)CCN(C(=O)C5CCN(c6ccc(C7CCC(=O)NC7=O)c(F)c6)CC5)C4)CC3)nc(NC3CC3)c21 (mixture of isomers) [Example 185]    70 to 85%
CC(C)n1cnc2cc(-c3ccc4c(c3)N([C@H]3C[C@@H](N5CCCCC5)C3)C(=O)C43CCN(C(=O)C4(C)CCN(C(=O)C5CCN(c6ccc([C@@H]7CCC(=O)NC7=O)cn6)CC5)CC4)CC3)nc(OC3CCOCC3)c21 [Example 165]    70 to 85%

Turning to the following compound.
Query :: Please report the measured Dmax for CC(C)n1cnc2cc(-c3ccc4c(c3)N([C@H]3C[C@@H](N5CCCCC5)C3)C(=O)C43CCN(C(=O)C4[C@@H]5C[C@H]4CN(C(=O)[C@H]4CC[C@H](Oc6ccc(C7CCC(=O)NC7=O)cc6)CC4)C5)CC3)nc(NC3CC3)c21 (stereo partly shown) [Example 238]
Result :: > 85%

FYI, the data here is from patent US12091426B2.
